- TARGET: auerolysin (Staphylococcus aureus)
- Construct: purchased BioCentrum Ltd (Kraków, Poland)
- Sequence (P81177 209-509): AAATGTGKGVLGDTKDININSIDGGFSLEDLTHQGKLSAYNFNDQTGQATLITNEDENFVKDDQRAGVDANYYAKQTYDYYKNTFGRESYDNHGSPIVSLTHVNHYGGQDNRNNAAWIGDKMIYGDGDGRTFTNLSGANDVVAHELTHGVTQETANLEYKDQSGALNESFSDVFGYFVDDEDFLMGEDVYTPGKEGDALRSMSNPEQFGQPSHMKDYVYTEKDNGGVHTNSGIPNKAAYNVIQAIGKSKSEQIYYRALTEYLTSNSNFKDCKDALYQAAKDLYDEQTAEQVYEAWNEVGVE
- EXPERIMENTAL_DETAILS: Initial rate fluorescence assay, auerolysin, substrate Mca-[…](Dnp)-OH (Km, Ki)
- Format: biochemical
- ASSAY_SETUP: Ki from Henderson plot, from Ki app; 3.6 nM enzyme
PROPERTY: Ki (nM)
One number for each entry, in nM.

Q: Reported Ki, compound CNC(=O)[C@H](Cc1c[nH]c2ccccc12)NC(=O)[C@@H](CC(=O)NO)CC(C)C : ____
A: 450

----------
- TARGET: recombinant human MMP-14 catalytic domain (Homo sapiens, UniProt P50281)
- Construct: recombinant MMP-14 (catalytic domain) were from Calbiochem; purchased Calbiochem (San Diego, CA, USA)
- EXPERIMENTAL_DETAILS: Initial rate fluorescence assay, MMP-14 catalytic domain, substrate Mca-PLGLDpaAR-NH2 (Km, Ki)
- Assay type: biochemical
- ASSAY_SETUP: average ± S.E.M. of independent experiments; read-out: Ki, Morrison equation, average
- Protocol: To determine the kinetic and inhibitor kinetic coefficients Km, and Ki, initial rate experiments were performed using a Perkin Elmer LS 50 Luminescence spectrometer and the FL WinLab Software Package (Perkin Elmer). […] The excitation and emission wavelengths for the two fluorescence quenched MMP peptide substrates, McaPLGLDpaAR-NH2 and Mca-[…](Dpn)-OH were; λex = 320 nm, λem = 405 nm and a slit width = 10 nm at both wavelengths. […]
PROPERTY: pKi
Give bare numbers, as −log10 of the molar value.

Q: Short answer please: pKi, recombinant human MMP-14 catalytic domain (Homo sapiens, UniProt P50281), entry CNC(=O)[C@H](Cc1c[nH]c2ccccc12)NC(=O)[C@@H](CC(=O)NO)CC(C)C
A: 9.06
